Kindly supply the reported Activity values for the records listed here.
System: MCF7
Assay: Cell cycle arrest in human MCF7 cells assessed as accumulation at G2/M phase at 10 uM after 24 hrs using propidium iodide staining based flow cytometric analysis (reference value: 38.15 +/- 1.068 %)
Type: functional

Query string: Any idea what Activity was measured for `COc1cc(/C=C/C(=O)c2ccccc2O)ccc1OCCCn1cc(COc2cc3c(cc2OC)C(=O)N2CCC[C@H]2C=N3)nn1` ?
Result string: 14.32%

Query string: Any idea what Activity was measured for `COc1cc(/C=C/C(=O)c2ccccc2O)ccc1OCCCCn1cc(COc2cc3c(cc2OC)C(=O)N2CCC[C@H]2C=N3)nn1` ?
Result string: 7.07%

Query string: Any idea what Activity was measured for `COc1cc(/C=C/C(=O)c2ccccc2O)ccc1OCCCCCn1cc(COc2cc3c(cc2OC)C(=O)N2CCC[C@H]2C=N3)nn1` ?
Result string: 35.88%

Query string: Any idea what Activity was measured for `COc1ccc(/C=C/C(=O)c2ccc(O)cc2)cc1O` ?
Result string: 31.5%

Query string: Any idea what Activity was measured for `COc1cc(/C=C/C(=O)c2cc(Cl)ccc2O)ccc1OCCCCn1cc(COc2cc3c(cc2OC)C(=O)N2CCC[C@H]2C=N3)nn1` ?
Result string: 31.07%

Query string: Any idea what Activity was measured for `COc1cc2c(cc1OCc1ccccc1)N=C[C@@H]1C[C@H](n3cc(COc4ccc(/C=C/C(=O)c5ccccc5O)cc4OC)nn3)CN1C2=O` ?
Result string: 32.06%

Query string: Any idea what Activity was measured for `COc1cc2c(cc1OC)C(=O)N1C[C@@H](n3cc(COc4ccc(/C=C/C(=O)c5ccccc5O)cc4OC)nn3)C[C@H]1C=N2` ?
Result string: 35.19%

Query string: Any idea what Activity was measured for `COc1cc2c(cc1O)N=C[C@@H]1CCCN1C2=O` ?
Result string: 20.89%

Query string: Any idea what Activity was measured for `COc1cc(/C=C/C(=O)c2ccc(O)cc2)ccc1OCCCn1cc(COc2cc3c(cc2OC)C(=O)N2CCC[C@H]2C=N3)nn1` ?
Result string: 7.33%

Query string: Any idea what Activity was measured for `COc1cc(/C=C/C(=O)c2cc(Cl)ccc2O)ccc1OCCCCCn1cc(COc2cc3c(cc2OC)C(=O)N2CCC[C@H]2C=N3)nn1` ?
Result string: 22.06%

###

Assay: Anticancer activity against human DWD cells by SRB method
Assay type: functional
measured_endpoint: GI50 (µM)
Dear colleague, please return just the value in µM, with no unit written.

Query string: Any idea what GI50 was measured for `COc1cc(/C=C/C(=O)c2cc(Cl)ccc2O)ccc1OCCCCCn1cc(COc2cc3c(cc2OC)C(=O)N2CCC[C@H]2C=N3)nn1` ?
Result string: 2.3

Query string: Any idea what GI50 was measured for `COc1cc(/C=C/C(=O)c2ccc(O)cc2)ccc1OCCCn1cc(COc2cc3c(cc2OC)C(=O)N2CCC[C@H]2C=N3)nn1` ?
Result string: 0.12

Query string: Any idea what GI50 was measured for `COc1cc(/C=C/C(=O)c2ccccc2O)ccc1OCCCCCn1cc(COc2cc3c(cc2OC)C(=O)N2CCC[C@H]2C=N3)nn1` ?
Result string: 2.3

Query string: Any idea what GI50 was measured for `COc1cccc2c1C(=O)c1c(O)c3c(c(O)c1C2=O)C[C@@](O)(C(=O)CO)C[C@@H]3O[C@H]1C[C@H](N)[C@H](O)[C@H](C)O1` ?
Result string: 0.1

Query string: Any idea what GI50 was measured for `COc1cc2c(cc1OC)C(=O)N1C[C@@H](n3cc(COc4ccc(/C=C/C(=O)c5ccccc5O)cc4OC)nn3)C[C@H]1C=N2` ?
Result string: 2.7

###

Kindly supply the reported GI50 values for the records listed here.
Tested on: A549
Assay: Anticancer activity against human A549 cells by SRB method
Type: functional

Query string: Any idea what GI50 was measured for `COc1cc(/C=C/C(=O)c2ccccc2O)ccc1OCCCCn1cc(COc2cc3c(cc2OC)C(=O)N2CCC[C@H]2C=N3)nn1` ?
Result string: < 160 nM

Query string: Any idea what GI50 was measured for `COc1cc(/C=C/C(=O)c2ccccc2O)ccc1OCCCCCn1cc(COc2cc3c(cc2OC)C(=O)N2CCC[C@H]2C=N3)nn1` ?
Result string: 170 nM

Query string: Any idea what GI50 was measured for `COc1cc2c(cc1OC)C(=O)N1C[C@@H](n3cc(COc4ccc(/C=C/C(=O)c5ccccc5O)cc4OC)nn3)C[C@H]1C=N2` ?
Result string: 2780 nM

Query string: Any idea what GI50 was measured for `COc1cc2c(cc1O)N=C[C@@H]1CCCN1C2=O` ?
Result string: 160 nM

Query string: Any idea what GI50 was measured for `COc1cc(/C=C/C(=O)c2ccc(O)cc2)ccc1OCCCn1cc(COc2cc3c(cc2OC)C(=O)N2CCC[C@H]2C=N3)nn1` ?
Result string: 150 nM

Query string: Any idea what GI50 was measured for `COc1cc(/C=C/C(=O)c2ccccc2O)ccc1OCCCn1cc(COc2cc3c(cc2OC)C(=O)N2CCC[C@H]2C=N3)nn1` ?
Result string: 2330 nM

Query string: Any idea what GI50 was measured for `COc1cc(/C=C/C(=O)c2cc(Cl)ccc2O)ccc1OCCCCn1cc(COc2cc3c(cc2OC)C(=O)N2CCC[C@H]2C=N3)nn1` ?
Result string: 190 nM

Query string: Any idea what GI50 was measured for `COc1cc(/C=C/C(=O)c2ccc(O)cc2)ccc1OCCCCn1cc(COc2cc3c(cc2OC)C(=O)N2CCC[C@H]2C=N3)nn1` ?
Result string: < 150 nM

Query string: Any idea what GI50 was measured for `COc1cc(/C=C/C(=O)c2cc(Cl)ccc2O)ccc1OCCCCCn1cc(COc2cc3c(cc2OC)C(=O)N2CCC[C@H]2C=N3)nn1` ?
Result string: 2090 nM

###

Tested on: MCF7
Assay: Cell cycle arrest in human MCF7 cells assessed as accumulation at G0/G1 phase at 4 uM after 24 hrs using propidium iodide staining based flow cytometric analysis
Type: functional
Response field label takes 1.0 when Activity is strictly below 60% and 0.0 in all other cases.

Query string: Item `COc1cc2c(cc1O)N=C[C@@H]1CCCN1C2=O` : Activity beneath 60%, strictly?
Result string: 0.0

Query string: Item `COc1ccc(/C=C/C(=O)c2ccc(O)cc2)cc1O` : Activity beneath 60%, strictly?
Result string: 0.0

Query string: Item `COc1cc2c(cc1OC)C(=O)N1C[C@@H](n3cc(COc4ccc(/C=C/C(=O)c5ccccc5O)cc4OC)nn3)C[C@H]1C=N2` : Activity beneath 60%, strictly?
Result string: 1.0

Query string: Item `COc1cc(/C=C/C(=O)c2ccccc2O)ccc1OCCCCCn1cc(COc2cc3c(cc2OC)C(=O)N2CCC[C@H]2C=N3)nn1` : Activity beneath 60%, strictly?
Result string: 1.0

###

Tested on: COLO 205
Assay: Anticancer activity against human COLO205 cells by SRB method
Type: functional
Kindly supply the reported GI50 values for the records listed here.
Dear colleague, please return just the value in nM, with no unit written.

Query string: Any idea what GI50 was measured for `COc1cc(/C=C/C(=O)c2ccc(O)cc2)ccc1OCCCCn1cc(COc2cc3c(cc2OC)C(=O)N2CCC[C@H]2C=N3)nn1` ?
Result string: 110

Query string: Any idea what GI50 was measured for `COc1cc2c(cc1O)N=C[C@@H]1CCCN1C2=O` ?
Result string: 110

Query string: Any idea what GI50 was measured for `COc1cc2c(cc1OC)C(=O)N1C[C@@H](n3cc(COc4ccc(/C=C/C(=O)c5ccccc5O)cc4OC)nn3)C[C@H]1C=N2` ?
Result string: 110

Query string: Any idea what GI50 was measured for `COc1cccc2c1C(=O)c1c(O)c3c(c(O)c1C2=O)C[C@@](O)(C(=O)CO)C[C@@H]3O[C@H]1C[C@H](N)[C@H](O)[C@H](C)O1` ?
Result string: 140

Query string: Any idea what GI50 was measured for `COc1cc(/C=C/C(=O)c2ccccc2O)ccc1OCCCn1cc(COc2cc3c(cc2OC)C(=O)N2CCC[C@H]2C=N3)nn1` ?
Result string: 150

Query string: Any idea what GI50 was measured for `COc1cc(/C=C/C(=O)c2cc(Cl)ccc2O)ccc1OCCCCCn1cc(COc2cc3c(cc2OC)C(=O)N2CCC[C@H]2C=N3)nn1` ?
Result string: 100

Query string: Any idea what GI50 was measured for `COc1cc(/C=C/C(=O)c2ccccc2O)ccc1OCCCCCn1cc(COc2cc3c(cc2OC)C(=O)N2CCC[C@H]2C=N3)nn1` ?
Result string: 140

###

Test system: KB
Experiment: Anticancer activity against human KB cells by SRB method
Format: functional
measured_endpoint: GI50 (nM)
Dear colleague, please return just the value in nM, with no unit written.

Query string: Any idea what GI50 was measured for `COc1cccc2c1C(=O)c1c(O)c3c(c(O)c1C2=O)C[C@@](O)(C(=O)CO)C[C@@H]3O[C@H]1C[C@H](N)[C@H](O)[C@H](C)O1` ?
Result string: 170

Query string: Any idea what GI50 was measured for `COc1cc(/C=C/C(=O)c2cc(Cl)ccc2O)ccc1OCCCCn1cc(COc2cc3c(cc2OC)C(=O)N2CCC[C@H]2C=N3)nn1` ?
Result string: 2660

Query string: Any idea what GI50 was measured for `COc1cc(/C=C/C(=O)c2ccc(O)cc2)ccc1OCCCn1cc(COc2cc3c(cc2OC)C(=O)N2CCC[C@H]2C=N3)nn1` ?
Result string: 2030

Query string: Any idea what GI50 was measured for `COc1cc(/C=C/C(=O)c2ccccc2O)ccc1OCCCn1cc(COc2cc3c(cc2OC)C(=O)N2CCC[C@H]2C=N3)nn1` ?
Result string: 2190

Query string: Any idea what GI50 was measured for `COc1cc(/C=C/C(=O)c2ccc(O)cc2)ccc1OCCCCn1cc(COc2cc3c(cc2OC)C(=O)N2CCC[C@H]2C=N3)nn1` ?
Result string: 160

Query string: Any idea what GI50 was measured for `COc1cc2c(cc1O)N=C[C@@H]1CCCN1C2=O` ?
Result string: 170

Query string: Any idea what GI50 was measured for `COc1cc(/C=C/C(=O)c2ccccc2O)ccc1OCCCCn1cc(COc2cc3c(cc2OC)C(=O)N2CCC[C@H]2C=N3)nn1` ?
Result string: 170

Query string: Any idea what GI50 was measured for `COc1cc(/C=C/C(=O)c2ccccc2O)ccc1OCCCCCn1cc(COc2cc3c(cc2OC)C(=O)N2CCC[C@H]2C=N3)nn1` ?
Result string: 180
